Test: protein stability index of a GFP-peptide fusion (yeast GPS) (PSI 1-4); higher = more stable; sorted into four equal gates, so the index is relative within each strain
Details: ubr1∆
assayEndpoint: protein stability index

                               seqtext            assayendpoint  reportedresult
 0    SGHDDLVHDVVYDFYGR [YGL100W/SEH1]  protein stability index             2.5
 1            IHLKQKLSESLDTRKEL [SMC3]  protein stability index            3.49
 2            RNSYPASFYSVNTEKKT [RPN3]  protein stability index            3.46
 3            NDPEILKKIASIPNLFP [SWI1]  protein stability index            2.53
 4            LSYISALGMMTRISSQF [RET1]  protein stability index            1.14
 5            TEKDDNKTNNEDLFDDY [NUT1]  protein stability index            3.08
 6            KKSVNKLDKQINMADRS [POP6]  protein stability index            2.83
 7            KIEGCISQVSSIHAIGS [RPB7]  protein stability index            2.17
 8            NHKIIARVKAFDRHCNM [SMD2]  protein stability index            1.93
 9            MKDRLVEWNDQVEKLGK [RPN9]  protein stability index            3.39
10            QWRYLYDTQLKVSPEEL [ARP7]  protein stability index            1.67
11    LIQSTEFPSITSSVILG [YOR098C/NUP1]  protein stability index            3.17
12            ADNDGPRINNISAEDRA [SNF2]  protein stability index            1.52
13            KNGNEYNEFLYSKAGRE [QCR8]  protein stability index            2.75
14           SVMMQDSPASNEDDLTV [RPO31]  protein stability index            3.31
15           KAKRAKTGSASTVKGSV [TAF14]  protein stability index            3.16
16            NRSEQNGQEQQGPVKNT [RGR1]  protein stability index            3.55
17            QMAVHIATDGGRICRPL [RET1]  protein stability index             2.8
18            LYQSLTPQQLQMIQQRH [SNF5]  protein stability index            2.08
19            SFSLTTFSPSGKLGQID [PRE8]  protein stability index            3.08
20            DDDLFETLVLSYFSPIN [YCG1]  protein stability index            1.35
21           SHDKKTKCSTVVKASEL [SRP14]  protein stability index            3.33
22            FNYQGDELVLNFENDNE [REC8]  protein stability index            2.63
23            STNESNKSISDEITEDM [SSN2]  protein stability index            2.98
24            SLLPYYHLTKAVKLGDL [RPN3]  protein stability index            1.78
25            LSRNGKPVMEVTSSFFY [FAS1]  protein stability index             2.6
26            IGVIQLAHYVVTAKLLG [FAS1]  protein stability index            1.35
27            GRLNTLVISLAATNETF [IRR1]  protein stability index            1.17
28            LYASDYASYFPYLLETY [RPN7]  protein stability index            1.18
29            LNARMFLKYYGAHKFLD [SIR2]  protein stability index            1.69
30            AFHNNLKFLYLLDAYSH [MED1]  protein stability index            1.26
31            RGEIREIEQVCKQVHDK [MED7]  protein stability index            2.87
32           MSSVQSKILSQAPSELE [RPS7B]  protein stability index            2.04
33           LAKILARSIDVEKGVNP [ECM29]  protein stability index            1.07
34            KSSNDTIEHAADITDGN [YCG1]  protein stability index             3.3
35            RQIRPIMERIKSSLSLR [ITC1]  protein stability index            1.42
36             LGHPDNYIPGNPLVTPA [COB]  protein stability index            2.93
37            ISSAKLDKFTDGGLFTL [QCR2]  protein stability index            3.21
38            SFDVAISTACPRLDDVV [SMC4]  protein stability index            3.11
39            EGVEYSFLHVDDKLAYI [POP8]  protein stability index            2.04
40           ETEFPPFREFLQVLIDQ [ECM29]  protein stability index            3.27
41    QLNEERSRYRREIDALK [YIL149C/MLP2]  protein stability index            3.25
42  SERDSKDRYINGDKKVD [YMR129W/POM152]  protein stability index             3.1
43            INIQKKLEPKEIVRDIL [SIR4]  protein stability index            2.86
44          GMKVKADRDESSPYAAM [RPS14B]  protein stability index             1.2
45            TNFSPTPANNGENAAEK [SNF2]  protein stability index            2.81
46          LKLLVKLYTFLARRTDA [RPL18A]  protein stability index            1.97
47            DRINYTETALMNLKKEL [SRB5]  protein stability index            3.18
48            EIEQPVTTFVFTGQGSQ [FAS1]  protein stability index            2.24
49            VKNLSLMSCISVGTDPM [RPB2]  protein stability index            2.43
50            SIMVELKLPLEINYAFS [SIR3]  protein stability index             1.5
51            PNDSNDEKVTILVDSLT [SWI1]  protein stability index            3.06
52            ELKDLETQVEVEKNEIG [NNF1]  protein stability index            3.33
53           KNTELSYDFLPLSNIKA [RPN12]  protein stability index            3.09
54           QALQMKAMDIPIGRHEE [SWP82]  protein stability index            2.08
55            YNLRSLNLINAKLWFYI [RPN3]  protein stability index            1.48
56            QVRKDLGNVIVPNILSL [NUT1]  protein stability index            2.62
57            KKLVWPLHLIFAQPVAD [SSN2]  protein stability index            1.17
58            PNALKPLSESLRLVDDD [RRP6]  protein stability index            3.23
59            GALPPDLSLIVKARHGG [CYT1]  protein stability index            2.23
60            ICNTLNIAKDLKWKKGI [SMC1]  protein stability index            2.69
